- assay_procedure: GHS categories as the set defines them, by LD50: 1 up to 5, 2 up to 50, 3 up to 300, 4 up to 2000, 5 above 2000 mg/kg
- stated_conditions: rat; in vivo; po
measured_quantity: GHS category
Enter the number alone.

Using known records, supply GHS category for CCOC(=O)C(C)(C)NC(=O)c1cnc2cccc(C)n2c1=O
3

Indicate its recorded GHS category; the compound in question is CCCCC(CC)CNc1ccc(NCC(CC)CCCC)c2c1C(=O)c1c(O)ccc(O)c1C2=O (stereo not given)
5

Please indicate GHS category recorded for CCc1cc(C)cc(CC)c1-c1c(OC(=O)C(C)(C)C)n2n(c1=O)CCOCC2
5

Please give the documented GHS category of Cc1cc2c(cc1S(N)(=O)=O)S(=O)(=O)CCC2
5

Quickly give me recorded GHS category for CCCCCC(=O)Nc1ccc(Cc2ccccn2)c([N+](=O)[O-])c1
3

---

Provide the recorded GHS category for the entries that follow.
- assay_procedure: GHS categories as the set defines them, by LD50: 1 up to 5, 2 up to 50, 3 up to 300, 4 up to 2000, 5 above 2000 mg/kg
- stated_conditions: rat; in vivo; po
// keep it numeric: no unit symbol after the value

Answer with the recorded GHS category for the molecule listed here: CCC(O)=C1C(=O)CC(C(=O)O)CC1=O (configuration not stated)
5

Report measured GHS category; entry is O=C(O)CN(CCN(CC(=O)O)CC(=O)O)CCN(CC(=O)O)CC(=O)O (racemic)
5

Respond only with GHS category recorded for CC(=O)Oc1ccccc1C(=O)Nc1ncc([N+](=O)[O-])s1
5

Hello, please tell me recorded GHS category for this one: C/C=C/C(=O)OC
5

Return GHS category (reported value) for this molecule: CCOC(=O)C(=O)Nc1cc(Cl)ncn1
4

Give me measured GHS category, please, for this molecule: O=C(O)c1cc(N=Nc2ccc(N=Nc3ccc(S(=O)(=O)O)cc3)cc2)ccc1O
5

State, in one line, measured GHS category of Cc1ccc(-n2nccn2)c(C(=O)O)c1
5

Given the molecule COc1ccc(C2NC(=O)CCS2)cc1 (configuration not stated) , write its reported GHS category.
5

Provide one value: measured GHS category of O=C1c2ccccc2C(=O)c2ccccc21
5

Entry CC(C)c1ccc(C(C)C)cc1 needs its GHS category filled in; supply it.
5

Annotate the molecule Cn1c2cc(C(F)(F)F)ccc2c2oc(C(=O)NCCCN3CCCCC3)cc21 with its measured GHS category.
4

Complete the entry with GHS category for CCCOc1nn(-c2cccc(C(F)(F)F)c2)c2ncccc12
4

---

Task for the reader: assign each of the following compounds its reported GHS category.
- assay_procedure: GHS categories as the set defines them, by LD50: 1 up to 5, 2 up to 50, 3 up to 300, 4 up to 2000, 5 above 2000 mg/kg
- stated_conditions: rat; in vivo; po
Give the figure by itself; no unit, no explanation.

Determine its reported GHS category: COC1=C(OC)C(=O)C(CC=C(C)CCC=C(C)CCC=C(C)CCC=C(C)CCC=C(C)CCC=C(C)CCC=C(C)CCC=C(C)CCC=C(C)C)=C(C)C1=O
5

Give a short answer stating reported GHS category for CCOC(=O)C(=O)Nc1cc(OCCOCCOC)ncn1 .
4

Fill in reported GHS category for this entry: CCC/C=C/COC(=O)CC
5

Give the reported value of GHS category for this record: CCC(C)(CCC(C)C)C(=O)OCC1CO1 (stereo not given)
5

For the compound O=C(c1ccc(Oc2ccccc2)cc1)c1ccc(C(=O)c2ccc(Oc3ccccc3)cc2)cc1 , report GHS category.
5

Specify measured GHS category for O=C(NCc1ncc(C(F)(F)F)cc1Cl)c1c(Cl)cccc1Cl .
5

Read off the recorded GHS category for COCc1ccc(C=O)o1
5

State its GHS category for this compound: COc1cc(C)c(/C=C/C(C)=C/C=C/C(C)=C/C(=O)O)c(C)c1C
5

Please report the measured GHS category for O=C1NC(=O)c2ccc3c4ccc5c6c(ccc(c7ccc1c2c73)c64)C(=O)NC5=O
5

Give a short answer stating reported GHS category for COc1ccc(OCCCCN2CCN(CCc3cc(OC)c(OC)c(OC)c3)CC2)c(C2Sc3ccccc3N2C(C)=O)c1 (stereo not given) .
4

---

- assay_procedure: rat acute oral toxicity
- stated_conditions: in vivo
Class boundaries, taken from values of LD50, are as follows: category 1: < 500 mg/kg; category 2: ≥ 500 mg/kg and < 2000 mg/kg; category 3: ≥ 2000 mg/kg

Lab note: sort O=C=Nc1ccc(Cl)c(Cl)c1 into the matching LD50 band.
category 1

Categorize the following entry: Clc1cccc(Cl)c1Cl
category 2

Which category does the recorded LD50 put CCCCSP(SCCCC)SCCCC in?
category 2

Looking at Cc1ccc(C)cc1 , which class would you pick?
category 3

Dear colleague, I would appreciate it if you could identify the bin for O=C(O)c1cc(Oc2ccc(C(F)(F)F)cc2Cl)ccc1[N+](=O)[O-] and reply at your convenience.
category 2

Which class does CCCCCCCCC=CCCCCCCCC1=NCCN1CCO fall in?
category 2

Sort CC[C@H]1OC(=O)[C@H](C)[C@@H](O[C@H]2C[C@@](C)(OC)[C@@H](O)[C@H](C)O2)[C@H](C)[C@@H](O[C@@H]2O[C@H](C)C[C@H](N(C)C)[C@H]2O)[C@](C)(O)C[C@@H](C)C(=O)[C@H](C)[C@@H](O)[C@]1(C)O into one of the categories.
category 3

Hey, which category is CC(C)CCCCCOC(=O)c1ccccc1C(=O)OCCCCCC(C)C in, do you know?
category 3

Which bin should I file CC(C)c1ccc(-c2ccccc2)cc1 under?
category 3

Band of CCOP(=O)(NC(C)C)Oc1ccc(SC)c(C)c1 (stereo unspecified) ?
category 1

Would you mind sorting NC(=O)c1c(F)cccc1F into the appropriate category?
category 2

Could you place CCOP(=S)(OCC)SCCSCC in its proper category? Many thanks.
category 1

Into which bin does this molecule go? C=CC[N+](C)(C)CC=C
category 3

Band for Cc1cc(O)ccc1Cl ?
category 2

# bin lookup: classify CCN(CC)N=O by its LD50
category 1

For the record CO[Si](CCCNCCN)(OC)OC , report the class its LD50 corresponds to.
category 2

Lab log: CCCOCCO — assign LD50 category
category 3

Just checking, what class would you give COCCCN here?
category 2

Given N=C(Nc1ccccc1)Nc1ccccc1 , name the class its LD50 places it in.
category 1

State the class of the molecule shown: OCCOc1ccccc1
category 2

Exam item: assign COc1nc(C)nc(NC(=O)NS(=O)(=O)c2ccccc2Cl)n1 to the correct category.
category 3

Bin this entry: CC=C1CC2CC1C1C3C=CC(C3)C21 (stereo unspecified)
category 2

Place this molecule in its band: CO[Si](C)(OC)C1CCCCC1
category 3

Returns: class label. Input: COCC(C)O (stereo unspecified)
category 3

Exam item: assign CC(Cc1ccc(C(C)(C)C)cc1)CN1CCCCC1 (stereo unspecified) to the correct category.
category 2

Tag the class for CC(C)CC=O
category 3

Textbook exercise: identify the category of the molecule given here, O=C1C2CC=CCC2C(=O)N1SC(Cl)(Cl)Cl (stereo unspecified) , according to its measured value.
category 3

Field: class (LD50) — entry: O=S(=O)(O)OCCOc1ccc(Cl)cc1Cl
category 1

# bin label for Nc1ccncc1
category 1

Band of CC(C)(C)CCCCCCCCCN ?
category 1

Entry CCN(C)C belongs to which category?
category 2

Hey, which category is O=C(O)COc1nc(Cl)c(Cl)cc1Cl in, do you know?
category 2

Which category fits this record: O=Cc1ccccn1
category 2

Hello team, could you let me know which band the following molecule falls into: CC(C)(C)c1cc(C(C)(C)C)c(O)c(C(C)(C)C)c1
category 2

Class? Entry: O=c1n(CC2CO2)c(=O)n(CC2CO2)c(=O)n1CC1CO1 (stereo unspecified)
category 1

Band assignment needed for CCO[Si](CCCSC#N)(OCC)OCC please.
category 2

Assign a category based on measured LD50 for Cc1ccc([N+](=O)[O-])c(C)c1 and give only the class name.
category 2

Lab note: which band did CCOP(=S)(OCC)SCSC(C)(C)C land in?
category 1

For CCOP(=S)(OCC)SCSCC , which LD50 bin applies?
category 1

Entry CC1(C)[C@H](C(=O)O[C@H](C#N)c2cccc(Oc3ccccc3)c2)[C@@H]1C(Br)C(Br)(Br)Br (stereo partly specified) belongs to which category?
category 1

Which band does CCc1nn(C)c(C(=O)NCc2ccc(C(C)(C)C)cc2)c1Cl fall in?
category 2

Please indicate the class for CCON=C(CC)C1=C(O)CC(c2c(C)cc(C)cc2C)CC1=O (stereo unspecified) based on its LD50.
category 2

Tag the class for CCCCOCCOCCOC(C)=O
category 3

Into which bin does this molecule go? CCC(C)NC1CCC(CC2CCC(NC(C)CC)CC2)CC1 (stereo unspecified)
category 1

Consider CNC(=O)ON=CC(C)(C)SC . To which LD50 class does it belong?
category 1

Any idea which band CC1(C)C(C=C(Cl)Cl)C1C(=O)OCc1cccc(Oc2ccccc2)c1 (stereo unspecified) is in?
category 1

Categorize the following entry: CCN(CC)c1c([N+](=O)[O-])cc(C(F)(F)F)c(N)c1[N+](=O)[O-]
category 3

For CC(C)C1OCC=CCO1 , which LD50 bin applies?
category 2

# bin lookup: classify CN(C)C(=O)Nc1ccc(Oc2ccc(Cl)cc2)cc1 by its LD50
category 3

Which class holds COP(=S)(OC)Oc1ccc(Sc2ccc(OP(=S)(OC)OC)cc2)cc1 ?
category 1

Each molecule maps to one class by LD50. Which class for O=C1c2ccccc2C(=O)C1C(=O)C(c1ccccc1)c1ccc(Cl)cc1 (stereo unspecified) ?
category 1

Tag the class for C1COCO1
category 3

Class (by measured LD50) for CCC(C(c1ccc(Cl)cc1)c1ccc(Cl)cc1)[N+](=O)[O-] (stereo unspecified)
category 1

Each molecule maps to one class by LD50. Which class for C=CCn1c(=O)n(CC=C)c(=O)n(CC=C)c1=O ?
category 2

Which class does O=C(NC(=O)c1c(F)cccc1F)Nc1ccc(Cl)cc1 fall in?
category 2
